# Test system: kochia
# procedure text: Test C pre-/postemergence herbicide test
# Format: in vivo, Kochia scoparia
# measurement setup: 125 g ai/ha; scale 0 (no effect) to 100 (complete control); visual, 12 to 14 days; preemergence
Task for the reader: assign each of the following compounds its reported Plant response rating, Kochia.

GET /value?item= `CCn1nc(C(C)(C)C)cc1C(=O)Nc1cccc(OC(F)(F)C(F)F)c1` &field=Plant response rating, Kochia returns 100

GET /value?item= `CCn1nc(C(C)(C)C)cc1C(=O)Nc1cccc(C(=O)NC2CC2)n1` &field=Plant response rating, Kochia returns 50

GET /value?item= `CCc1nn(C(C)(C)C)cc1C(=O)Nc1cccc(C(C)=NO)c1` &field=Plant response rating, Kochia returns 0

GET /value?item= `CCn1nc(C(C)(C)C)cc1C(=O)Nc1cccc(S(=O)(=O)C(F)(F)F)c1` &field=Plant response rating, Kochia returns 100

GET /value?item= `CCn1nc(C(C)(C)C)cc1C(=O)Nc1cncc(C(=O)N(C)C)n1` &field=Plant response rating, Kochia returns 100

GET /value?item= `CCN(CC)C(=O)c1cccc(NC(=O)c2cc(C(C)(C)C)nn2CC)n1` &field=Plant response rating, Kochia returns 60

GET /value?item= `CCn1nc(C2(C)CC2)cc1C(=O)Nc1cccc(C(=O)N2CC=CC2)c1` &field=Plant response rating, Kochia returns 80

GET /value?item= `C=CCNC(=O)c1cccc(NC(=O)c2sc(C(C)(C)C)nc2C)c1` &field=Plant response rating, Kochia returns 85
